Test: Weekly food intake of SHR rats
Type: in vivo, rat
Details: 120 mg/kg/d intragastric, week 6
Marks after values point to notes of the source that are not given here.
ASSAY ENDPOINT: Average dairy food intake

Observe how each entry below is paired with its result.
Memo: CCCCC(OC(C)=O)c1ccccc1C(=O)O[C@H]1C(=O)O[C@H]2O[C@]34C(=O)OC5C[C@@H](C(C)(C)C)C21[C@@]53[C@@H](O)[C@@H]1OC(=O)[C@@H](C)[C@@]14O (stereo partly drawn) , reported Average dairy food intake: 23.9^▴▴ g/d

response.value for Cc1nc(C)c(C(=O)O[C@H]2C(=O)O[C@H]3O[C@]45C(=O)OC6C[C@@H](C(C)(C)C)C32[C@@]64[C@@H](O)[C@@H]2OC(=O)[C@@H](C)[C@@]25O)nc1C (stereo partly drawn) (field: Average dairy food intake) = 24.1^▴▴ g/d

Entry under test: C[C@@H]1C(=O)O[C@H]2[C@H](O)[C@@]34C5C[C@@H](C(C)(C)C)C36[C@@H](OC(=O)[C@@H]6OC(=O)[C@H](c3ccccc3Cl)N3CCc6sccc6C3)O[C@@]4(C(=O)O5)[C@@]12O (stereo partly drawn) . Its Average dairy food intake was 24.6^▴▴ g/d

---
CC(=O)Oc1ccccc1C(=O)O[C@H]1C(=O)O[C@H]2O[C@]34C(=O)OC5C[C@@H](C(C)(C)C)C21[C@@]53[C@@H](O)[C@@H]1OC(=O)[C@@H](C)[C@@]14O (stereo partly drawn) yielded Average dairy food intake of 24.5^▴▴ g/d

Cc1nc(C)c(CO[C@H]2C(=O)O[C@H]3O[C@]45C(=O)OC6C[C@@H](C(C)(C)C)C32[C@@]64[C@@H](O)[C@@H]2OC(=O)[C@@H](C)[C@@]25O)nc1C (stereo partly drawn) yielded Average dairy food intake of 24.4^▴▴ g/d

Average dairy food intake in this record for CC1C(=O)OC2C(O)C34C5CC(C(C)(C)C)C36C(OC(=O)C6O)OC4(C(=O)O5)C12O (stereo not drawn) [GB, ginkgolide B] : 24.6^▴▴ g/d
